- Test system: MS2 coat protein
- Assay summary: apparent KD of MS2 coat protein; higher = weaker reporter binding
- Test settings: Eterna round: R107; input ligand: theophylline 20 uM
A collection of sequences and their measured apparent KD of MS2 coat protein

# Sequence text, apparent KD of MS2 coat protein (nM)
data = [
    ("AAUUGGGUUGGUGAGGUGGUUGGAGGCGAUACCAGCGUGGAAACACGCCCUUGGCAGCGCCAGGACAUGAGGAUCACCCAUGUUC [Ostrava]", 36),
    ("AUACAUGAGGAUCACCCAUGUUAUAGUGAAGGAGCGACAUUUAGGUCAGGUAGGUCGCACUAUUGAAUUAUUAUCCUCUUUUCUU [JR_ExcArginiA_Sub021]", 31.2),
    ("GAUUCGCAGUCGGCCGCCACUAACAUGAGCUGCUAGUUAUUAUCACAUGAGGAUCACCCAUGUCUUAGGACCGGGACAACCUGUU [theeternabot_sameState_MS2_Trp_B_26]", 79.1),
    ("GCAUCCUAGUCGGCCGCCACUGGUAUGAACACCUUCACCCGUGUGCACAUGAGGAUCACCCAUGUUAGGACCGGGACUAGGAUGC [SSTryp B #20]", 11.2),
    ("CCUCACGAAAUCGAUGAAAGCAUGUGGCACCGAGGACCGGUACGGCCGCCACUCGCAUCCACACAUGAGGAUCACCCAUGUAAGA [theeternabot_exclusion_MS2_Trp_A_9]", 37.6),
    ("CUGCCAUGCAGGGAUACCAGUGCGUUCAGAACAUGAGGAUCACCCAUGUCGUCUGCCGAUCACCCUUGGCAGCUCUGCAUGGCAG [#05 Same State - Theophylline B]", 9.45),
]

----------
- Test system: K4 kissing-loop RNA reporter;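 also: bound reporter read as fluorescence of individual clusters on recovered sequencing chips by microscopy, with normalized cluster intensities fitted with a binding model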
- Assay summary: apparent KD of K4 kissing-loop reporter; higher = weaker reporter binding
- Test settings: Eterna round: R107; input ligand: tryptophan 2.4 mM
A collection of sequences and their measured apparent KD of K4 kissing-loop reporter

# Sequence text, apparent KD of K4 kissing-loop reporter, nM
records = [
    ("AAGUGAUGUUGUAGUGAUGUUGUGAUGUUGCAGGAUAUAUAGUGAUGUAGAAGGGUAUGUUCAGUUUUUUUUUUUGAGUGUUGAU [szxmullin]", 66.5),
    ("UUCAGUGAUGUUGAACACUGUUGUAUAAACUAGGAUAUGCUGAUAAGCAGAAGGAGUGAUGUUCCGUUCAACAUCAGAAUUAAAU [#08 K4 FMN A Exclusion]", 269),
    ("AUUAAUUUCAGAGGAUAUCGUGAUUUUGUUUAAUUUAUUCAUUUGUGCAGUGAUGUUGCUAAUAUUCGAGAAGGCUGAUUUAUAA [whbob_Ex_FMNB__2th225]", 53.3),
]

----------
- System: MS2 coat protein
- Assay summary: apparent KD of MS2 coat protein; designed switch direction (-1 OFF switch, 1 ON switch): -1; higher = weaker reporter binding
- Test settings: input ligand: FMN 200 uM
A collection of sequences and their measured apparent KD of MS2 coat protein
Assay endpoint: apparent KD of MS2 coat protein (nM)

# Sequence text, Test system, Recorded number
data = [
    ("UAUUAGCAAGCGAGAUCCUACAUGAGGAUCACCCAUGUGCUCGUCUUGUAAGGUACUGUGACGAAAGUCACGGUACC [Eli 91 v38] (Eterna round: R97, puzzle: Sensor, turn-off variant 1)", "MS2 coat protein", 16.5),
    ("GUCAGCUCGUCAGGAUAUACAUGAGGAUCACCCAUGUGGUCAUUAGCAGCUUCGGCUGCAUUAAUGUAGAAGGGACGAGCUGAC [ENG2/8-B1] (Eterna round: R96, puzzle: Exclusion NG 2)", "MS2 coat protein", 1120),
    ("GGAAGAGAGAUAGGAUAUCAGAGGAAGAUGGUGAGAGAGACAUGAGGAUCACCCAUGUGAAGGAAUGAGAAGGGUCAGAAGGAA [EXNG2 V2 h] (Eterna round: R96, puzzle: Exclusion NG 2)", "MS2 coat protein", 130),
]
